B1: LINE1-full (parent)
chain: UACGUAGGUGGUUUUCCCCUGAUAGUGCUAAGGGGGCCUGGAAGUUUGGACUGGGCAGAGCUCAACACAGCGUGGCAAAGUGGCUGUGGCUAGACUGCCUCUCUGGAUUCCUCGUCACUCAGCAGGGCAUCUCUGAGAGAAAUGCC

Variants of: B1
Test: self-cleavage, relative activity (ratio to wild type); higher = more cleavage; in vitro, sequencing; the parent is a self-cleaving ribozyme
Value kind: self-cleavage
Lab note: write the figure by itself, no unit.

Variant name: C123G U132C
self-cleavage: 1.43

Variant name: G89U A142U
self-cleavage: 0.04

Variant name: G74A U87C
self-cleavage: 0.08

Let us move to another entry and its self-cleavage.
// recorded self-cleavage for U26A U102A : 1.01
